tested on: cancer stem cells; assay: Survival rate of cancer stem cells after test compound is added (flow cytometry, Annexin V-FITC/PI, clinical specimen); assay type: cell-based, patient; details: Homo sapiens, 18 h, CML; 10.0 μM
Could you mark each record true if its viability at 10 µM falls strictly under 80%, and false if it equals or exceeds it?

Below, 8 compounds whose answers are already recorded.
compound	class_assignment
CC1=C2CC[C@@](C)(O)[C@@H]2[C@H]2OC(=O)[C@@H](CN(C)C)[C@@H]2CC1	false
C=C1C(=O)O[C@@H]2[C@H]3C(C)=CC[C@@]34O[C@@]4(C)CC[C@@H]12	true
C=C1C(=O)O[C@@H]2[C@@H]3[C@@H](CC[C@@]3(C)O)[C@](C)(O)CC[C@@H]12	false
C=C1C(=O)O[C@H]2[C@H]1CCC(C)=C1CC[C@@](C)(OC(=O)CCCc3cn(CCCCCCO)nn3)[C@@H]12	true
C=C1C(=O)O[C@H]2[C@H]1CC[C@]1(C)O[C@@]13CC[C@@](C)(O)[C@H]23	true
[2H][C@@]1(CN(C)C)C(=O)O[C@@H]2[C@@H]3[C@@H](CCC34CC4)C3(CC[C@H]21)CC3	false
C=C1CC[C@H]2C(=C)CC[C@H]3C(=C)C(=O)O[C@@H]3[C@@H]12	true
C=C1C(=O)O[C@H]2[C@H]1CC[C@@](C)(OC)C1CC[C@@](C)(O)[C@@H]12 (stereo partly shown)	false

Ask | I'd appreciate it if you could check whether `C=C1C(=O)O[C@@H]2[C@@H]3[C@@H](CC[C@@]3(C)O)C(=C)CC[C@@H]12` has viability at 10 µM smaller than 80%.
Reply | true

Ask | I'd appreciate it if you could check whether `C=C1C(=O)O[C@@H]2[C@@H]3[C@@H](CCC34CC4)C3(CC[C@@H]12)CC3` has viability at 10 µM smaller than 80%.
Reply | false

* * *

tested on: cancer stem cells; assay: Survival rate of cancer stem cells after test compound is added (flow cytometry, Annexin V-FITC/PI, clinical specimen); assay type: cell-based, patient; conditions: Homo sapiens, 18 h, Children hepatoblastoma; 10.0 μM
parameter_measured: viability at 10 µM (%)
Expressed in %, but write only the number.

Ask | Retrieve viability at 10 µM measured for `CN(C)C[C@@H]1C(=O)O[C@H]2[C@H]1CCC1(CC1)[C@@H]1CCC3(CC3)[C@H]21` and print it.
Reply | 82

Ask | Retrieve viability at 10 µM measured for `C=C1C(=O)O[C@H]2[C@H]1CC[C@]1(C)O[C@@]13CC[C@@](C)(O)[C@H]23` and print it.
Reply | 67

Ask | Retrieve viability at 10 µM measured for `[2H][C@@]1(CN(C)C)C(=O)O[C@@H]2[C@@H]3[C@@H](CCC34CC4)C3(CC[C@H]21)CC3` and print it.
Reply | 84

Ask | Retrieve viability at 10 µM measured for `C=C1CC[C@H]2C(=C)CC[C@H]3C(=C)C(=O)O[C@@H]3[C@@H]12` and print it.
Reply | 44

* * *

test system: cancer stem cells; assay: Survival rate of cancer stem cells after test compound is added (flow cytometry, Annexin V-FITC/PI, clinical specimen); assay type: cell-based, patient; conditions: Homo sapiens, 18 h, Nasopharynx cancer; 20.0 μM
Description: […]
Known viability at 20 µM of a selection of molecules
Expressed in %, but write only the number.

Some molecules with recorded viability at 20 µM:
molecule	viability at 20 µM / %
C=C1C(=O)O[C@@H]2[C@H]3C(C)=CC[C@@]34O[C@@]4(C)CC[C@@H]12	37
C=C1C(=O)O[C@H]2[C@H]1CC[C@@](C)(OC)C1CC[C@@](C)(O)[C@@H]12 (stereo partly shown)	74
[2H][C@@]1(CN(C)C)C(=O)O[C@@H]2[C@@H]3[C@@H](CCC34CC4)C3(CC[C@H]21)CC3	72

Ask | Retrieve viability at 20 µM measured for `C=C1C(=O)O[C@H]2[C@H]1CCC(C)=C1CC[C@@](C)(OC(=O)CCCc3cn(CCCCCCO)nn3)[C@@H]12` and print it.
Reply | 42

Ask | Retrieve viability at 20 µM measured for `C=C1C(=O)O[C@@H]2[C@@H]3[C@@H](CCC34CC4)C3(CC[C@@H]12)CC3` and print it.
Reply | 74

Ask | Retrieve viability at 20 µM measured for `CCOC(=O)[C@@H]1CCCN1C[C@@H]1C(=O)O[C@H]2[C@H]1CCC1(CC1)[C@@H]1CCC3(CC3)[C@H]21` and print it.
Reply | 79

Ask | Retrieve viability at 20 µM measured for `C=C1C(=O)O[C@H]2[C@H]1CC[C@]1(C)O[C@@]13CC[C@@](C)(O)[C@H]23` and print it.
Reply | 48

Ask | Retrieve viability at 20 µM measured for `CC1=C2CC[C@@](C)(O)[C@@H]2[C@H]2OC(=O)[C@@H](CN(C)C)[C@@H]2CC1` and print it.
Reply | 74

Ask | Retrieve viability at 20 µM measured for `C=C1CC[C@H]2C(=C)CC[C@H]3C(=C)C(=O)O[C@@H]3[C@@H]12` and print it.
Reply | 37

Ask | Retrieve viability at 20 µM measured for `C=C1C(=O)O[C@@H]2[C@@H]3[C@@H](CC[C@@]3(C)O)[C@](C)(O)CC[C@@H]12` and print it.
Reply | 77

Ask | Retrieve viability at 20 µM measured for `C=C1C(=O)O[C@@H]2[C@@H]3[C@@H](CC[C@@]3(C)O)C(=C)CC[C@@H]12` and print it.
Reply | 48
